# tested_system: Yer064c (UniProt P40041)
# Sequence: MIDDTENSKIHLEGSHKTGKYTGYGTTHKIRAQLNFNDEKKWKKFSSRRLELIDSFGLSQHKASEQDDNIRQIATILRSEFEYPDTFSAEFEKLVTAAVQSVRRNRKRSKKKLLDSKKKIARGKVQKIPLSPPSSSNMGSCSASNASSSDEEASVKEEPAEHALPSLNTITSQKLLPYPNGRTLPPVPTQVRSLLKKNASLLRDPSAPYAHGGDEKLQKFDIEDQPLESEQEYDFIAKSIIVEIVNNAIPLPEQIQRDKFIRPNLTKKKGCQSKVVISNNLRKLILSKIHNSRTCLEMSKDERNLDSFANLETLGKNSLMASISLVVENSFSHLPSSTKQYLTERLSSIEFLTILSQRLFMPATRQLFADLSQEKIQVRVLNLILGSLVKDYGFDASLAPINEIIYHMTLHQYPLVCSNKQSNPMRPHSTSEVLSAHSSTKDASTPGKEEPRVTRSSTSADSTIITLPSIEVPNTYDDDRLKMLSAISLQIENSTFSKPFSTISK
# test_description: PBM E-score (8-mer binding enrichment) (E-score (-0.5 to 0.5)); higher = stronger / more preferred TF binding
# condition: protein concentration: 200 nM; construct: GST-full length
In all, about 33,000 sequences were measured (“E-score (-0.5 to 0.5)”: median about -0.036, highest 2% from about 0.37 on). For the sample, the highest values were picked, then their nearest neighbours and some sequences at random.
Decision: PBM E-score >= 0.01 yields met, all other cases yield not met.

Q) Answer whether PBM E-score of ACTCTTAG is greater than or equal to 0.01.
A) met

Q) Answer whether PBM E-score of GTTGACGA is greater than or equal to 0.01.
A) met

Q) Answer whether PBM E-score of ATTGACAC is greater than or equal to 0.01.
A) met

Q) Answer whether PBM E-score of GCGCAGGA is greater than or equal to 0.01.
A) not met

Q) Answer whether PBM E-score of ACGTAGTA is greater than or equal to 0.01.
A) not met

Q) Answer whether PBM E-score of CACTTACC is greater than or equal to 0.01.
A) met

Q) Answer whether PBM E-score of CTTGACTA is greater than or equal to 0.01.
A) met

Q) Answer whether PBM E-score of CCATGCCA is greater than or equal to 0.01.
A) not met

Q) Answer whether PBM E-score of ACGTAGTC is greater than or equal to 0.01.
A) met

Q) Answer whether PBM E-score of CCGTAGGC is greater than or equal to 0.01.
A) not met

Q) Answer whether PBM E-score of CGTCTTAG is greater than or equal to 0.01.
A) not met

Q) Answer whether PBM E-score of CCCATTAA is greater than or equal to 0.01.
A) not met

Q) Answer whether PBM E-score of GGTCTTAC is greater than or equal to 0.01.
A) met

Q) Answer whether PBM E-score of AATCTTAT is greater than or equal to 0.01.
A) met

Q) Answer whether PBM E-score of ATGACAAG is greater than or equal to 0.01.
A) met

Q) Answer whether PBM E-score of AACTTCCG is greater than or equal to 0.01.
A) met

Q) Answer whether PBM E-score of AGTCTTAG is greater than or equal to 0.01.
A) met

Q) Answer whether PBM E-score of CTGACTGA is greater than or equal to 0.01.
A) met

Q) Answer whether PBM E-score of CTTCTGCC is greater than or equal to 0.01.
A) not met

Q) Answer whether PBM E-score of GAGGACCA is greater than or equal to 0.01.
A) not met

Q) Answer whether PBM E-score of GCACTGAC is greater than or equal to 0.01.
A) met

Q) Answer whether PBM E-score of AGAAAATC is greater than or equal to 0.01.
A) met

Q) Answer whether PBM E-score of CCGTAGTC is greater than or equal to 0.01.
A) met

Q) Answer whether PBM E-score of GGGACTGA is greater than or equal to 0.01.
A) met

Q) Answer whether PBM E-score of CGTCTTAA is greater than or equal to 0.01.
A) not met

###

# tested_system: Yer064c (UniProt P40041)
# Sequence: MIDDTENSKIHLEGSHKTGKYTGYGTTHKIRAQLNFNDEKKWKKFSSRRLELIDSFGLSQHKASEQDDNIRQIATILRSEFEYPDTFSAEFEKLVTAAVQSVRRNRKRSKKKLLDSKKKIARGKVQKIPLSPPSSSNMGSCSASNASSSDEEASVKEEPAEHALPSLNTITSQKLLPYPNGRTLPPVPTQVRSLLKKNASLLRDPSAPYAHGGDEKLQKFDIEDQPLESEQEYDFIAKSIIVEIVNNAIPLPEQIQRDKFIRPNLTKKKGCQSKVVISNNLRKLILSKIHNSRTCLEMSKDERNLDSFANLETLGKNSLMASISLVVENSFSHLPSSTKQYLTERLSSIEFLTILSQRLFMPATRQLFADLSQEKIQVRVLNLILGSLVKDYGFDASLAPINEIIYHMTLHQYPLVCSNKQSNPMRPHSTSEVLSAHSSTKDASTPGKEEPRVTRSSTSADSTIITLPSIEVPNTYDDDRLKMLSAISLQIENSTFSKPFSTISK
# test_description: PBM E-score (8-mer binding enrichment) (E-score (-0.5 to 0.5)); higher = stronger / more preferred TF binding
# condition: protein concentration: 200 nM; construct: GST-full length
The full ranking holds about 33,000 sequences; the median of “E-score (-0.5 to 0.5)” is about -0.036, and the highest 2% start at about 0.37. Only a selection was taken, and the highest values are over-represented in it overall.
# PBM E-score binned as I = under 0.2, II = from 0.2 up to 0.4, III = 0.4 and over

Q) Into which bin does this sequence go? ACGATTAG
A) I

Q) Into which bin does this sequence go? ATGATTAC
A) III

Q) Into which bin does this sequence go? GAGAATCC
A) I

Q) Into which bin does this sequence go? AGTGATTG
A) II

Q) Into which bin does this sequence go? AGAGTCAA
A) III

Q) Into which bin does this sequence go? TACGACTA
A) III

Q) Into which bin does this sequence go? AGGGACTA
A) II

Q) Into which bin does this sequence go? GGTACTCA
A) II

Q) Into which bin does this sequence go? AGAGTCTG
A) I

Q) Into which bin does this sequence go? CGTGATCC
A) I

Q) Into which bin does this sequence go? CACGACGA
A) I

Q) Into which bin does this sequence go? CTTACTCA
A) II

###

# tested_system: Yer064c (UniProt P40041)
# Sequence: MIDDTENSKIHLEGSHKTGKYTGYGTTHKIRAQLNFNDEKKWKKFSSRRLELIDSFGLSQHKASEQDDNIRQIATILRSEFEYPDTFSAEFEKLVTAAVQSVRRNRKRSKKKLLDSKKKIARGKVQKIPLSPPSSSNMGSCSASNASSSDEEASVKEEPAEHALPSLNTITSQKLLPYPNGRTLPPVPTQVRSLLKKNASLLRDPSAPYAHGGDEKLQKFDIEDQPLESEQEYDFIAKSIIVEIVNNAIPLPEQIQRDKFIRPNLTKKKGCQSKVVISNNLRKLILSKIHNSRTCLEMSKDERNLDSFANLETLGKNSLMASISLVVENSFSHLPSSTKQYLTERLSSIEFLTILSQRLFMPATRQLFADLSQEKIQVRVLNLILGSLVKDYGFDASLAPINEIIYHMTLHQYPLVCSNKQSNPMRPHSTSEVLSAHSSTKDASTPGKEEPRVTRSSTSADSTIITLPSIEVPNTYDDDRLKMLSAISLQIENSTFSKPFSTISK
# test_description: PBM E-score (8-mer binding enrichment) (E-score (-0.5 to 0.5)); higher = stronger / more preferred TF binding
# condition: protein concentration: 200 nM; construct: GST-full length
In all, about 33,000 sequences were measured (“E-score (-0.5 to 0.5)”: median about -0.036, highest 2% from about 0.37 on). What follows is part of a selection rich in the highest values, with near analogues and random picks from the rest.
For each record, write down the corresponding PBM E-score.

Q) Return reported PBM E-score; argument: CAGATTAA
A) 0.183

Q) Return reported PBM E-score; argument: TCATATGA
A) 0.393

Q) Return reported PBM E-score; argument: AATTCAAC
A) -0.0608

Q) Return reported PBM E-score; argument: GTGATTAA
A) 0.452

Q) Return reported PBM E-score; argument: CTCAGTCC
A) 0.255

Q) Return reported PBM E-score; argument: CTGATTAA
A) 0.405

Q) Return reported PBM E-score; argument: ATGCGAAG
A) -0.0967

Q) Return reported PBM E-score; argument: AACTCATT
A) 0.2

Q) Return reported PBM E-score; argument: TGAGCTAA
A) 0.189

Q) Return reported PBM E-score; argument: ATCAGTCC
A) 0.0464

Q) Return reported PBM E-score; argument: AGTTTCTC
A) -0.105

Q) Return reported PBM E-score; argument: GCATATGA
A) 0.14

Q) Return reported PBM E-score; argument: CGCGTAAC
A) -0.139

Q) Return reported PBM E-score; argument: CGGTGGGC
A) -0.341

Q) Return reported PBM E-score; argument: ACGCATAC
A) -0.135

Q) Return reported PBM E-score; argument: CGAAAAAA
A) 0.0432

Q) Return reported PBM E-score; argument: AGCGGCGA
A) -0.0237

Q) Return reported PBM E-score; argument: CACTACTC
A) 0.112

Q) Return reported PBM E-score; argument: ACCAGTCT
A) 0.0632

Q) Return reported PBM E-score; argument: AGAGGTGC
A) -0.25

Q) Return reported PBM E-score; argument: CACGTGAG
A) 0.0942

Q) Return reported PBM E-score; argument: GACTACTA
A) 0.417

Q) Return reported PBM E-score; argument: CCGGGTAA
A) -0.0414

Q) Return reported PBM E-score; argument: TAGGGCGA
A) 0.0759

Q) Return reported PBM E-score; argument: ACTCACGC
A) 0.357

Q) Return reported PBM E-score; argument: CACCTACG
A) 0.0159

Q) Return reported PBM E-score; argument: GGGATTAA
A) 0.166

Q) Return reported PBM E-score; argument: GGCAGTGA
A) 0.0347

Q) Return reported PBM E-score; argument: AATTGTAG
A) 0.13

Q) Return reported PBM E-score; argument: TATTCAAA
A) 0.135

Q) Return reported PBM E-score; argument: ATCAGTCA
A) 0.434

Q) Return reported PBM E-score; argument: ACTCACAA
A) 0.395

Q) Return reported PBM E-score; argument: AAGGCTGT
A) -0.161

Q) Return reported PBM E-score; argument: AGGTCATC
A) 0.18

Q) Return reported PBM E-score; argument: AGCAGTCA
A) 0.412

Q) Return reported PBM E-score; argument: GATTCAAA
A) 0.371

Q) Return reported PBM E-score; argument: ATTCCAGG
A) 0.118

Q) Return reported PBM E-score; argument: CTCAGTGA
A) 0.235

Q) Return reported PBM E-score; argument: ATTAAGGA
A) 0.176

Q) Return reported PBM E-score; argument: ACCAGTCC
A) -0.0297

Q) Return reported PBM E-score; argument: CCTCACGA
A) -0.0431

Q) Return reported PBM E-score; argument: GTGTTGGA
A) -0.127

Q) Return reported PBM E-score; argument: CCTAATCC
A) -0.33

Q) Return reported PBM E-score; argument: ATCAGTCG
A) 0.296
